Tested on: MDA-MB-231 breast
procedure-details: NCI tumour cell line growth inhibition, 48 h
measured-property: TGI

[
  {
    "compound": "C=CC12CCN(CC1)C(C(O)c1ccnc3ccc(OC)cc13)C2 (centres undefined)",
    "measured-property": "TGI",
    "measured-value": "> 100 µM"
  },
  {
    "compound": "N#CC(c1ccccc1)N(CCOCCOCCN(C(=O)c1ccccc1)C(C#N)c1ccccc1)C(=O)c1ccccc1 (centres undefined)",
    "measured-property": "TGI",
    "measured-value": "> 100 µM"
  },
  {
    "compound": "O=C(c1ccccc1)c1ccc2c(c1)NC(=O)c1ccccc1SSc1ccccc1C(=O)N2",
    "measured-property": "TGI",
    "measured-value": "> 100 µM"
  },
  {
    "compound": "CC1=C(C#N)c2nc3ccccc3n2C(=O)C1(C)CCO (centres undefined)",
    "measured-property": "TGI",
    "measured-value": "> 100 µM"
  },
  {
    "compound": "C[C@@H]1CCC2[C@@H](C)[C@@H](O[C@H]3O[C@@H]4O[C@@]5(C)CCC6[C@H](C)CCC([C@H]3C)[C@]64OO5)O[C@@H]3O[C@@]4(C)CCC1[C@@]23OO4 (some centres undefined)",
    "measured-property": "TGI",
    "measured-value": "> 25 µM"
  },
  {
    "compound": "CN(Cc1cnc2nc(N)nc(N)c2n1)c1ccc(C(=O)N[C@@H](CCS(=O)(=O)O)C(=O)O)cc1",
    "measured-property": "TGI",
    "measured-value": "> 100 µM"
  },
  {
    "compound": "CC(C)(C)c1ccc2c(c1)C#Cc1cc3c(cc1OCCCO2)C#Cc1cc(C(C)(C)C)ccc1OCCCO3",
    "measured-property": "TGI",
    "measured-value": "> 100 µM"
  },
  {
    "compound": "COc1cccc2c1OC(c1cccc3ccccc13)C([N+](=O)[O-])=C2 (centres undefined)",
    "measured-property": "TGI",
    "measured-value": "5.01 µM"
  },
  {
    "compound": "COc1cc2c(cc1OCCCN1C(=O)c3cccc4cccc(c34)C1=O)N=C[C@@H]1CCCN1C2=O",
    "measured-property": "TGI",
    "measured-value": "> 100 µM"
  }
]

----------
Parameter TGI: see the listing below.
Tested on: HCC-2998 colon
procedure-details: NCI tumour cell line growth inhibition, 48 h

[
  {
    "compound": "N#CC(I)CS(=O)(=O)c1ccccc1 (stereo not drawn)",
    "rel": "=",
    "TGI (µM)": 31.8
  },
  {
    "compound": "N#CC(c1ccccc1)N(CCOCCOCCN(C(=O)c1ccccc1)C(C#N)c1ccccc1)C(=O)c1ccccc1 (stereo not drawn)",
    "rel": ">",
    "TGI (µM)": 100
  },
  {
    "compound": "Nc1nc(Cl)nc2c1ncn2C1CC(O)C(CO)O1 (stereo not drawn)",
    "rel": ">",
    "TGI (µM)": 100
  },
  {
    "compound": "C[N+](C)(C)CC(=O)N/N=C(/Cc1cc(=O)oc2cc(O)ccc12)C(=O)Nc1ccc(Cl)cc1",
    "rel": ">",
    "TGI (µM)": 100
  },
  {
    "compound": "O=C1c2cccc3cccc(c23)C(=O)N1CCN(CCO)CCO",
    "rel": "=",
    "TGI (µM)": 84.9
  },
  {
    "compound": "Cc1cccc(NC2=C(Cl)C(=O)c3nc(C)ccc3C2=O)c1",
    "rel": "=",
    "TGI (µM)": 3.22
  },
  {
    "compound": "O=C1C(=Nc2ccc(Nc3ccccc3)cc2)Oc2ccccc21",
    "rel": "=",
    "TGI (µM)": 23.4
  },
  {
    "compound": "CCCN(CCC)c1c([N+](=O)[O-])cc(C(=O)N(CC)CC)cc1[N+](=O)[O-]",
    "rel": ">",
    "TGI (µM)": 100
  }
]
